Target: Chymotrypsin, from human pancreas (Homo sapiens)
Sequence (P17538 19-263): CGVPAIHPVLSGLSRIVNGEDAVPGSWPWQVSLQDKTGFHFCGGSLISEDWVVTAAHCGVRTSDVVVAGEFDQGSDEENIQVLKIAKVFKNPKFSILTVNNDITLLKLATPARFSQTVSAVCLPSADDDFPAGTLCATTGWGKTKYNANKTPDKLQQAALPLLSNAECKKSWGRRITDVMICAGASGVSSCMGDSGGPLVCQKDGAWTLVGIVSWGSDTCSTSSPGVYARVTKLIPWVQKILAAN
Test: Enzymatic assay, chymotrypsin
Conditions: at 100 μM
Where a SMILES comes first, the peptide text is derived from it.
Attribute measured: Chymotrypsin at 100 μM % (%)

Compound: CC[C@H](C)[C@@H]1NC(=O)[C@@H]2CCCN2C(=O)[C@@H]2CCCN2C(=O)[C@H](CC(=O)O)NC(=O)[C@H](CO)NC(=O)[C@H](CCCCN)NC(=O)[C@H]([C@@H](C)O)NC(=O)[C@@H]2CSSC[C@H](NC1=O)C(=O)N[C@@H](Cc1ccc(O)cc1)C(=O)N1CCC[C@@H]1C(=O)N1CCC[C@H]1C(=O)N[C@@H](C1CCCCC1)C(=O)N2 [Ex. 40] (HELM PEPTIDE1{[O=C([C@@H](N[*:1])C1CCCCC1)[*:2]].C.T.K.S.D.P.P.I.C.Y.[dP].P}$PEPTIDE1,PEPTIDE1,2:R3-10:R3|PEPTIDE1,PEPTIDE1,1:R1-13:R2$$$V2.0)
Readout value: 19

Compound: CC[C@H](C)[C@@H]1NC(=O)[C@@H]2CCCN2C(=O)[C@H]2CCCN2C(=O)[C@H](CCCNC(=N)N)NC(=O)[C@@H]2CSSC[C@H](NC1=O)C(=O)N[C@@H]([C@@H](C)O)C(=O)N[C@@H](CCCCN)C(=O)N[C@@H](CO)C(=O)N[C@@H](CC(=O)O)C(=O)N1CCC[C@H]1C(=O)N1CCC[C@H]1C(=O)N[C@@H](Cc1ccc(O)cc1)C(=O)N2 [Ex. 18] (HELM PEPTIDE1{I.C.T.K.S.D.P.P.Y.C.R.[dP].P}$PEPTIDE1,PEPTIDE1,2:R3-10:R3|PEPTIDE1,PEPTIDE1,1:R1-13:R2$$$V2.0)
Readout value: 25

Compound: CC[C@H](C)[C@@H]1NC(=O)[C@H](CO)NC(=O)[C@H](C)NC(=O)[C@H]([C@@H](C)O)NC(=O)[C@@H]2CSSC[C@H](NC(=O)[C@H](CCC(N)=O)NC(=O)[C@@H]3CCCN3C(=O)[C@@H]3CCCN3C1=O)C(=O)N[C@@H](Cc1ccccc1)C(=O)N1CCC[C@@H]1C(=O)N1CCC[C@H]1C(=O)N[C@@H](CCc1ccccc1)C(=O)N2 [Ex. 146] (HELM PEPTIDE1{[O=C([C@H](CCc1ccccc1)N[*:1])[*:2]].C.T.A.S.I.P.P.Q.C.F.[dP].P}$PEPTIDE1,PEPTIDE1,2:R3-10:R3|PEPTIDE1,PEPTIDE1,1:R1-13:R2$$$V2.0)
Readout value: 87
